pIC50: −log10 of the molar value.
Record type: pIC50 measurement. Applies to: Somatostatin receptor type 1 (Homo sapiens)
measurementType: pIC50

compoundStructure | qualifyingSign | reported
CC(=O)N[C@H]1CCSSC[C@@H](C(=O)O)NC(=O)[C@H](Cc2ccccc2)NC(=O)[C@H]([C@@H](C)O)NC(=O)[C@H](CCCCN)NC(=O)[C@@H](Cc2c[nH]c3ccccc23)NC(=O)[C@H](Cc2ccccc2)NC(=O)[C@H](Cc2ccccc2)NC1=O | = | 7.02
C[C@@H](O)[C@@H]1NC(=O)[C@H](CCCCN)NC(=O)[C@@H](Cc2c[nH]c3ccccc23)NC(=O)[C@H](Cc2ccccc2)NC(=O)[C@H](Cc2ccccc2)NC(=O)[C@H](N)CSSC[C@H](C(=O)O)NC(=O)[C@H](Cc2ccccc2)NC1=O | < | 6.00

====

Recorded IC50 by entry
systemTested: Somatostatin receptor type 3 (Homo sapiens, UniProt P32745)
Sequence (P32745 whole entry): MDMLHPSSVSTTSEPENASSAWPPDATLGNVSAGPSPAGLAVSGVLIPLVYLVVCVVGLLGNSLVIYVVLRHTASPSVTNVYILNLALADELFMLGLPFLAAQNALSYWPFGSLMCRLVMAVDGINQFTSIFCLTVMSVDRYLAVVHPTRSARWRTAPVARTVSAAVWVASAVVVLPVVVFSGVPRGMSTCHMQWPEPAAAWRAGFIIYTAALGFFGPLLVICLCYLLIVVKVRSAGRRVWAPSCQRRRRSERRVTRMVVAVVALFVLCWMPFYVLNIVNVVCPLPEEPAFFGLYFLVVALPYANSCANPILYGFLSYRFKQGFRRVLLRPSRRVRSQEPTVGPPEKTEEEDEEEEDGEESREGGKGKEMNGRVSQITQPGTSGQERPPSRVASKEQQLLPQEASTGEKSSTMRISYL
protocolSummary: Displacement of [125I]-[Leu8, DTrp22, Tyr25]SRIF-28 from human cloned sst3 receptor expressed in CCL39 cells

compoundStructure | IC50
CC(=O)N[C@H]1CSS[C@H](C(=O)O)NC(=O)[C@H](Cc2ccccc2)NC(=O)[C@H]([C@@H](C)O)NC(=O)[C@H](CCCCN)NC(=O)[C@@H](Cc2c[nH]c3ccccc23)NC(=O)[C@H](Cc2ccccc2)NC(=O)[C@H](Cc2ccccc2)NC1=O | 20 nM
CC(=O)N[C@@H]1CSSC[C@H](C(=O)O)NC(=O)[C@H](Cc2ccccc2)NC(=O)[C@H]([C@@H](C)O)NC(=O)[C@H](CCCCN)NC(=O)[C@@H](Cc2c[nH]c3ccccc23)NC(=O)[C@H](Cc2ccccc2)NC(=O)[C@H](Cc2ccccc2)NC1=O | 15 nM
CC(=O)N[C@H]1SSC[C@@H](C(=O)O)NC(=O)[C@H](Cc2ccccc2)NC(=O)[C@H]([C@@H](C)O)NC(=O)[C@H](CCCCN)NC(=O)[C@@H](Cc2c[nH]c3ccccc23)NC(=O)[C@H](Cc2ccccc2)NC(=O)[C@H](Cc2ccccc2)NC1=O | 14 nM
CC(=O)N[C@@H]1SS[C@@H](C(=O)O)NC(=O)[C@H](Cc2ccccc2)NC(=O)[C@H]([C@@H](C)O)NC(=O)[C@H](CCCCN)NC(=O)[C@@H](Cc2c[nH]c3ccccc23)NC(=O)[C@H](Cc2ccccc2)NC(=O)[C@H](Cc2ccccc2)NC1=O | 50 nM
CC(=O)N[C@@H]1CSSC[C@@H](C(=O)O)NC(=O)[C@H](Cc2ccccc2)NC(=O)[C@H]([C@@H](C)O)NC(=O)[C@H](CCCCN)NC(=O)[C@@H](Cc2c[nH]c3ccccc23)NC(=O)[C@H](Cc2ccccc2)NC(=O)[C@H](Cc2ccccc2)NC1=O | 19 nM
CC(=O)N[C@@H]1SSC[C@@H](C(=O)O)NC(=O)[C@H](Cc2ccccc2)NC(=O)[C@H]([C@@H](C)O)NC(=O)[C@H](CCCCN)NC(=O)[C@@H](Cc2c[nH]c3ccccc23)NC(=O)[C@H](Cc2ccccc2)NC(=O)[C@H](Cc2ccccc2)NC1=O | 6 nM
CC(=O)N[C@@H]1CSS[C@@H](C(=O)O)NC(=O)[C@H](Cc2ccccc2)NC(=O)[C@H]([C@@H](C)O)NC(=O)[C@H](CCCCN)NC(=O)[C@@H](Cc2c[nH]c3ccccc23)NC(=O)[C@H](Cc2ccccc2)NC(=O)[C@H](Cc2ccccc2)NC1=O | 36 nM
CC(=O)N[C@H]1CSS[C@@H](C(=O)O)NC(=O)[C@H](Cc2ccccc2)NC(=O)[C@H]([C@@H](C)O)NC(=O)[C@H](CCCCN)NC(=O)[C@@H](Cc2c[nH]c3ccccc23)NC(=O)[C@H](Cc2ccccc2)NC(=O)[C@H](Cc2ccccc2)NC1=O | 53 nM
